assay: Hemolytic activity in human erythrocytes incubated for 1 hr; type: toxicity, cell-based, Erythrocyte
metric: HC50 at 1 h

input: Which HC50 at 1 h is listed for H-GIMSSLMKKLAAHIAK-NH2 ?
output: > 400 µM

###

experiment: Hemolytic activity in human erythrocytes incubated for 30 mins; assay type: toxicity, cell-based, Erythrocyte
Positions of bridges follow the written chain, without caps; N, C: chain ends. Non-standard residues stand in square brackets, D forms with d. Residues, ends and D or L forms follow the SMILES beside them. S5 = C=CCCC[C@](C)(N)C(=O)O; Nle = CCCC[C@H](N)C(=O)O
Give measured HC50 at 0.5 h for each item. Keep answers brief.
Please append the unit to your numeric answer.

input: Given the compound CC(=O)N[C@@H](CCCCN)C(=O)N[C@@]1(C)CCC/C=C\CCC[C@@](C)(C(=O)N[C@@H](CCCCN)C(N)=O)NC(=O)[C@H](C)NC(=O)[C@H](CCCCN)NC(=O)[C@H](Cc2c[nH]c3ccccc23)NC1=O (Ac-K[S5]WKA[S5]K-NH2; staple (Z) 2-6) , what is its reported HC50 at 0.5 h?
output: 1.4 µM

input: // returns reported HC50 at 0.5 h for input CC[C@H](C)[C@H](N)C(=O)N[C@@H](CC(=O)O)C(=O)N[C@@H](Cc1c[nH]c2ccccc12)C(=O)N[C@@H](CCCCN)C(=O)N[C@@H](CCCCN)C(=O)N[C@@]1(C)CCC/C=C\CCC[C@@](C)(C(=O)N[C@@H](CCCCN)C(=O)N[C@@H](CCC(N)=O)C(=O)N[C@H](C(=O)N[C@@H](CC(C)C)C(=O)O)[C@@H](C)CC)NC(=O)[C@H](C)NC(=O)[C@H](CC(=O)O)NC(=O)[C@H](CC(C)C)NC1=O (H-IDWKK[S5]LDA[S5]KQIL-OH; staple (Z) 6-10)
output: 12.3 µM

input: HC50 at 0.5 h lookup needed for CCCC[C@@H]1NC(=O)[C@H](CCCCN)NC(=O)[C@H](Cc2c[nH]c3ccccc23)NC(=O)[C@@](C)(NC(=O)[C@@H](N)CCCCN)CCC/C=C\CCC[C@@](C)(C(=O)N[C@@H](CCCCN)C(N)=O)NC1=O (H-K[S5]WK[Nle][S5]K-NH2; staple (Z) 2-6) , thanks.
output: 3.3 µM
